# measurement-target: 5-HT1A receptor (Rattus norvegicus)
# Sequence (P19327 whole entry): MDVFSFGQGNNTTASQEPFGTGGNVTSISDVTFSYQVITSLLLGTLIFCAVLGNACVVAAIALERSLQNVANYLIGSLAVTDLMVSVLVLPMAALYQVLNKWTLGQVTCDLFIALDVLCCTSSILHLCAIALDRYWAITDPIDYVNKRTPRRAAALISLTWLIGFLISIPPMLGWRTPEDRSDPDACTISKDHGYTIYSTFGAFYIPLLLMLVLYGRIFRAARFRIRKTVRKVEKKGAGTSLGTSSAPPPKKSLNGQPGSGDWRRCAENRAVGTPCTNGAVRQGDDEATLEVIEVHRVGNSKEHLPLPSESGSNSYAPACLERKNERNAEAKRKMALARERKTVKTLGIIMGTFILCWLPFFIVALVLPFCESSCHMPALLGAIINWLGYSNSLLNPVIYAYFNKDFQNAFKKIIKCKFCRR
# run-description: Antagonism of the discriminative stimulus properties induced by 8-OH-DPAT in rats (8-OH-DPAT cue)
# Type: in vivo, rat (male Wistar)
# Parameters: from tissue; host or cells: living male Wistar rat (in vivo, endogenous receptor)
# condition-parameters: sc, before 8-OH-DPAT 0.4 mg/kg i.p.
endpoint-label: log10 ED50 (log10 of the value in µmol/kg)
Scale type: logarithmic (base 10). Underlying ED50 unit: µmol/kg.

// worked examples, log10 ED50 included
{"compound-smiles": "O=C1N(CCN2CCN(c3cccc4c3OCCO4)CC2)CCN1C1CCCCC1", "log10 ED50": 0.80}
{"compound-smiles": "CC(C)N1CCN(CCN2CCN(c3cccc4c3OCCO4)CC2)C1=O", "log10 ED50": 1.36}
{"compound-smiles": "O=C1N(CCN2CCN(c3cccc4[nH]ccc34)CC2)CCN1C1CCCC1", "log10 ED50": 0.28}

Exam item: # input molecule: O=C1N(CCCCN2CCN(c3cccc4c3OCCO4)CC2)CCN1C1CCCCC1 ; wanted: its log10 ED50
Marked response: 0.79

Exam item: # input molecule: O=C1N(CCN2CCN(c3cccc4c3OCCO4)CC2)CCN1C1CCCC1 ; wanted: its log10 ED50
Marked response: 0.43
